- PROTOCOL NOTES: lambda max (VIS) of the activated (colored) form in a homopolymer of diethylene glycol bis(allyl carbonate)
- Format: physicochemical
MEASURED METRIC: LAMBDA MAX (VIS) (nm)
Value expressed in nm; do not type the unit.

CC1Cc2c(ccc3c4c(ccc23)OC(c2ccccc2)(c2ccccc2)C=C4)O1 (stereo not drawn) [Example 2]: 488
COc1ccc2c3c(ccc2c1)OC(c1ccccc1)(c1ccccc1)C=C3 [Comparative Example 2, reference compound]: 473
CC1Cc2c(ccc3c4c(ccc23)OC(c2ccccc2)(c2cccc(F)c2)C=C4)O1 (stereo not drawn) [Example 4]: 489
CC1Cc2c(ccc3c4c(ccc23)OC(c2ccccc2)(c2cccc(C(F)(F)F)c2)C=C4)O1 (stereo not drawn) [Example 3]: 494
C1=CC(c2ccccc2)(c2ccccc2)Oc2ccc3ccccc3c21 [Comparative Example 1, 3,3-diphenyl-3H-naphtho[2,1-b]pyran, reference compound]: 430

// next item, LAMBDA MAX (VIS) requested
For this compound ( COc1cccc(C2(c3ccccc3)C=Cc3c(ccc4c5c(ccc34)OC(C)C5)O2)c1 (stereo not drawn) [Example 5] ), measured LAMBDA MAX (VIS) is 495

* * *

- PROTOCOL NOTES: photochromic response on an optical bench (sensitivity, saturation optical density, bleach rate) of imbibed test squares
- Type: physicochemical
- STATED CONDITIONS: time for absorbance of activated form to reach one half the highest absorbance at room temperature (75° F., 23.9° C.) after removal of activating light
Hi, to clarify the labels: MET covers BLEACH RATE T1/2 from 100 s upward, NOT MET covers anything below 100 s.

Record excerpt, results attached:
CC1Cc2c(ccc3c4c(ccc23)OC(c2ccccc2)(c2cccc(F)c2)C=C4)O1 (stereo not drawn): MET
COc1ccc2c3c(ccc2c1)OC(c1ccccc1)(c1ccccc1)C=C3 [Comparative Example 2, reference compound]: NOT MET
C1=CC(c2ccccc2)(c2ccccc2)Oc2ccc3ccccc3c21 [Comparative Example 1, 3,3-diphenyl-3H-naphtho[2,1-b]pyran, reference compound]: NOT MET
CC1Cc2c(ccc3c4c(ccc23)OC(c2ccccc2)(c2ccccc2)C=C4)O1 (stereo not drawn): MET
CC1Cc2c(ccc3c4c(ccc23)OC(c2ccccc2)(c2cccc(C(F)(F)F)c2)C=C4)O1 (stereo not drawn): MET

### Prompt Is reported BLEACH RATE T1/2 greater than or equal to 100 s here: COc1cccc(C2(c3ccccc3)C=Cc3c(ccc4c5c(ccc34)OC(C)C5)O2)c1 (stereo not drawn)
### Response MET

* * *

- PROTOCOL NOTES: lambda max (UV) in diethylene glycol dimethyl ether solution by UV spectrophotometer
- Assay type: physicochemical
- Set-up: unit not given here
- STATED CONDITIONS: approximately 0.5 milligram per milliliter, wavelength in the ultraviolet range closest to the visible spectrum
MEASURED METRIC: Lambda max (UV)
Answer using only a numeral; do not append any unit.

Check out these entries, answers already filled in.
C1=CC(c2ccccc2)(c2ccccc2)Oc2ccc3ccccc3c21 [Comparative Example 1, 3,3-diphenyl-3H-naphtho[2,1-b]pyran, reference compound]: 359
CC1Cc2c(ccc3c4c(ccc23)OC(c2ccccc2)(c2ccccc2)C=C4)O1 (stereo not drawn): 394
COc1cccc(C2(c3ccccc3)C=Cc3c(ccc4c5c(ccc34)OC(C)C5)O2)c1 (stereo not drawn): 395
Cc1coc2ccc3c4c(ccc3c12)OC(c1ccccc1)(c1ccccc1)C=C4: 372
Cc1cccc(C2(c3ccccc3)C=Cc3c(ccc4c5c(ccc34)OC(C)C5)O2)c1 (stereo not drawn): 394

For this compound ( COc1ccc(C2(c3ccccc3F)C=Cc3c(ccc4c5c(ccc34)OC(C)C5)O2)cc1 (stereo not drawn) ), measured Lambda max (UV) is 393

For this compound ( COc1ccc(C2(c3ccc(OC)cc3OC)C=Cc3c(ccc4c3ccc3oc(=O)cc(C)c34)O2)cc1 (stereo not drawn) ), measured Lambda max (UV) is 396

For this compound ( CC1Cc2c(ccc3c4c(ccc23)OC(c2ccccc2)(c2cccc(F)c2)C=C4)O1 (stereo not drawn) ), measured Lambda max (UV) is 394

For this compound ( `C1=CC(c2ccccc2)(c2ccccc2)Oc2ccc3c4c(ccc3c21)OCCC4` ), measured Lambda max (UV) is 382

For this compound ( COc1ccc(C2(c3ccc(OC)cc3OC)C=Cc3c(ccc4c3ccc3oc(C)cc(=O)c34)O2)cc1 (stereo not drawn) ), measured Lambda max (UV) is 384

For this compound ( CC1Cc2c(ccc3c4c(ccc23)OC(c2ccccc2)(c2cccc(C(F)(F)F)c2)C=C4)O1 (stereo not drawn) ), measured Lambda max (UV) is 396

For this compound ( COc1ccc2c3c(ccc2c1)OC(c1ccccc1)(c1ccccc1)C=C3 [Comparative Example 2, reference compound] ), measured Lambda max (UV) is 376
